Recorded values, source patent US20230130766A1.

# measurement_target: ULK1 (Homo sapiens, UniProt O75385)
# Sequence (O75385 1-1050): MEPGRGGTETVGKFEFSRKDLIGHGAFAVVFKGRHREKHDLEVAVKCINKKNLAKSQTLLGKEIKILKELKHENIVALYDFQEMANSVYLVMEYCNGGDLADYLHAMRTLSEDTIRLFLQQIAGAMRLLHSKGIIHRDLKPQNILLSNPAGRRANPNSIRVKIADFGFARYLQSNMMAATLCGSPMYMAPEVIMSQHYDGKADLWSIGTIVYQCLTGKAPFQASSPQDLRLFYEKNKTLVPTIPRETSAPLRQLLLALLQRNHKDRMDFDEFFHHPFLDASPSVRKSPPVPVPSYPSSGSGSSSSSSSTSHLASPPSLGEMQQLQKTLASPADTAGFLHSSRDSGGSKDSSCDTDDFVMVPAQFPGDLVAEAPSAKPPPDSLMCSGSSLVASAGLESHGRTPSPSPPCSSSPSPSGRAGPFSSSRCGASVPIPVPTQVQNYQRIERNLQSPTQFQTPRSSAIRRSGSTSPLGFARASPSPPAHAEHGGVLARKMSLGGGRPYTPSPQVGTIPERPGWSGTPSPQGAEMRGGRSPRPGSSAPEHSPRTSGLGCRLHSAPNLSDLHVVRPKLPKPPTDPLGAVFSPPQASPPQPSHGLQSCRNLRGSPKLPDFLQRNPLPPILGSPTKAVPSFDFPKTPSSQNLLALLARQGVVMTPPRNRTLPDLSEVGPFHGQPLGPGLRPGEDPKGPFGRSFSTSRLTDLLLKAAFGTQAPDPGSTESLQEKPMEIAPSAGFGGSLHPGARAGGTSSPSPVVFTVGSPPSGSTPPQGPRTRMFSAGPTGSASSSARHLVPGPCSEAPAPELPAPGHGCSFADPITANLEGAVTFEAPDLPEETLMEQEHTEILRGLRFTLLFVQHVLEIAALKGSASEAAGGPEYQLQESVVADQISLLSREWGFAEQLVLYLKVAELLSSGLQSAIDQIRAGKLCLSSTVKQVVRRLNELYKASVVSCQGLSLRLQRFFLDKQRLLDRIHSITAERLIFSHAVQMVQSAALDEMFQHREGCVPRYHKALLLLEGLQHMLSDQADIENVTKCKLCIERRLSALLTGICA
pIC50: −log10 of the molar value.
observation_type: pIC50

• COc1c(C)cnc(CNc2nc(Nc3ccc4c(c3)CCC(=O)N4)ncc2C(F)(F)F)c1C [Compound 82] = > 6.70
• CNC(=O)c1ccccc1Oc1nc(Nc2cc(OC)ccc2OC)ncc1C(F)(F)F [Compound 109a] = < 5.70
• COc1cc(Nc2ncc(Br)c(Oc3ccccc3NC(C)=O)n2)cc(OC)c1OC [Compound 254a] = > 6.70
• Oc1nc(Nc2ccc(Cl)c(Cl)c2)ncc1C(F)(F)F [Compound 108b] = < 5.70

----------
Some compounds, each annotated with its measured IC50.
# measurement_target: UniProt:O75385
observation_type: IC50

- FC(F)(F)c1cnc(Nc2ccc(Nc3ncc(C(F)(F)F)c(NC4CC4)n3)cc2)nc1NC1CC1 [Compound 304b]: > 2 µM
- COc1cc(Nc2ncc(Br)c(Oc3ccccc3C(=O)NC3CC3)n2)cc(OC)c1OC: 0.2 to 2 µM
- O=C(Nc1ccc(Nc2ncc(C(F)(F)F)c(NC3CC3)n2)cc1)C1CC1: < 0.2 µM
- O=C1CCc2cc(Nc3ncc(C(F)(F)F)c(NC4CN(c5nc(Nc6ccc7c(c6)CCC(=O)N7)ncc5C(F)(F)F)C4)n3)ccc2N1 [Compound 198b]: > 2 µM
- O=C1CCc2cc(Nc3ncc(C(F)(F)F)c(Nc4ccccc4OC(F)F)n3)ccc2N1 [Compound 120a]: < 0.2 µM
- O=C1CCc2cc(Nc3ncc(C(F)(F)F)c(Nc4ccccc4N4CCOCC4)n3)ccc2N1 [Compound 118a]: < 0.2 µM
- COc1cc(Nc2ncc(Cl)c(Nc3ccccc3CO)n2)cc(OC)c1OC: > 2 µM
- COc1ccc(C)c(Nc2ncc(Cl)c(Nc3cccc(S(=O)(=O)N(C)C)c3)n2)c1: > 2 µM
- COc1cc(Nc2ncc(Br)c(Oc3cccc4cc[nH]c34)n2)cc(OC)c1OC [Compound 329a]: > 2 µM
- CNC(=O)c1cccc(Oc2nc(Nc3ccc4c(c3)CCC(=O)N4)ncc2Br)c1: 0.2 to 2 µM
- FC(F)(F)c1cnc(Nc2ccc3c(c2)OCO3)nc1NCC1CC1 [Compound 167b]: < 0.2 µM
- CNc1nc(Nc2cnc3[nH]ccc3c2)ncc1C(F)(F)F [Compound 182a]: < 0.2 µM
- O=C1CCc2cc(Nc3ncc(C(F)(F)F)c(O)n3)ccc2N1 [Compound 231b]: > 2 µM
- FC(F)(F)c1cnc(Nc2cccc(Cl)c2Cl)nc1Nc1ccc2c(c1)OCO2: > 2 µM
- CCC(=O)c1ccccc1Oc1nc(Nc2cc(OC)c(OC)c(OC)c2)ncc1Br: < 0.2 µM
- COc1cc(Nc2nc(Oc3cccc4c3CCCC4)ncc2Br)cc(OC)c1OC [Compound 330b]: > 2 µM
- COc1cc(Nc2ncc(Br)c(Oc3ccccc3C(F)(F)F)n2)cc(OC)c1OC: < 0.2 µM
